- assayed-system: unphosphorylated-BTK kinase domain (UP-BTK), GST-tagged human BTK (389-659aa) (Homo sapiens (Human))
- Sequence (Q06187 389-659): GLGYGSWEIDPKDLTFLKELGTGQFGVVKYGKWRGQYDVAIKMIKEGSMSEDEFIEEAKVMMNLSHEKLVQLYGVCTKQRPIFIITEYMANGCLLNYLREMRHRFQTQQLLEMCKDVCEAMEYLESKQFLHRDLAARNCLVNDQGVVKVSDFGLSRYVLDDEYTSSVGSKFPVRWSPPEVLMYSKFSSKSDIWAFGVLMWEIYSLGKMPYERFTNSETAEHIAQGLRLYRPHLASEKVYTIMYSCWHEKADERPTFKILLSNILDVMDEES
- assay-comment: BTK kinase Lanthascreen binding assay
- conditions: unphosphorylated-BTK kinase domain, 50 nM Tracer 236, 60 minutes; pIC50 = negative log of the IC50 in molar
metric: BTK_I_binding pIC50

CNC/C=C/C(=O)N1CC[C@@H](NC(=O)c2sc3nccc4c3c2NC(=O)N4c2ccc(Oc3ccccc3)cc2C)C1 (single isomer, unassigned) [Example 492] = 8.0
Cc1cnc2sc(C(=O)N[C@@H]3CCCNC3)c3c2c1N(c1ccc(Oc2ccccc2)cc1)C(=O)N3 = 5.7
C=CC(=O)N1CCC[C@@H](NC(=O)c2sc3nccc4c3c2NC(=O)N4c2ccc(-c3cccs3)cc2)C1 = 6.4

[a] C=CC(=O)N1CCC[C@@H](NC(=O)c2sc3nccc4c3c2NC(=O)N4c2ccc3c(c2)OC(F)(F)O3)C1
[b] COc1ccc(N2C(=O)Nc3c(C(=O)N[C@@H]4CCCNC4)sc4nccc2c34)cc1
Query: I'm curious whether a or b has the smaller BTK_I_binding pIC50 number. Which is it? Identify your pick by its label.
Result: b
(b: 5.2, a: 7.5)
